molecular target: RNA-directed RNA polymerase (Hepacivirus hominis, UniProt O39930); test: Inhibition of NS5B-mediated RNA synthesis in Hepatitis C virus assessed as decrease in formation of full-length product after 45 mins
Sequence (O39930 whole entry): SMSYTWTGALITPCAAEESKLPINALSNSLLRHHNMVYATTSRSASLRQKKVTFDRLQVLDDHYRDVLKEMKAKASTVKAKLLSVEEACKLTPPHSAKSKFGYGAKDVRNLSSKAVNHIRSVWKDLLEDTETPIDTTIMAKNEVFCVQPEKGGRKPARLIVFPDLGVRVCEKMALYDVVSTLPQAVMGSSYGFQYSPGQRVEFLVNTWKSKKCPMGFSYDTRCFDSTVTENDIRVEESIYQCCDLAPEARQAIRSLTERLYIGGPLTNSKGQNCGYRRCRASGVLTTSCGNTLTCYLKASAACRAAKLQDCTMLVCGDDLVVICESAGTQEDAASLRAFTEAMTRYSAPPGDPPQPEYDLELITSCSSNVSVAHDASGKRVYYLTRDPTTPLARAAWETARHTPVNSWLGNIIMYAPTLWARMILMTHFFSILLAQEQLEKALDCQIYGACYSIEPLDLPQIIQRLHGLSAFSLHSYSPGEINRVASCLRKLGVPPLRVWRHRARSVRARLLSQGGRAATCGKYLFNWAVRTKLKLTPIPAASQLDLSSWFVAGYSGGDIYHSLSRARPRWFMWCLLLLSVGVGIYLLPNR
pIC50: −log10 of the molar value.
Experimental Endpoint: pIC50

>>> numeric_value("O=C(Nc1ccsc1-c1nc(O)c(O)c(C(=O)O)n1)OCc1c(Cl)cccc1Cl")
6.14

* * *

molecular target: RNA-directed RNA polymerase (Hepacivirus hominis, UniProt O39930, G152E); assay: Inhibition of NS5B G152E mutant-mediated RNA synthesis in Hepatitis C virus as decrease in formation of full-length product after 45 mins
Sequence (O39930 entry or part of it G152E): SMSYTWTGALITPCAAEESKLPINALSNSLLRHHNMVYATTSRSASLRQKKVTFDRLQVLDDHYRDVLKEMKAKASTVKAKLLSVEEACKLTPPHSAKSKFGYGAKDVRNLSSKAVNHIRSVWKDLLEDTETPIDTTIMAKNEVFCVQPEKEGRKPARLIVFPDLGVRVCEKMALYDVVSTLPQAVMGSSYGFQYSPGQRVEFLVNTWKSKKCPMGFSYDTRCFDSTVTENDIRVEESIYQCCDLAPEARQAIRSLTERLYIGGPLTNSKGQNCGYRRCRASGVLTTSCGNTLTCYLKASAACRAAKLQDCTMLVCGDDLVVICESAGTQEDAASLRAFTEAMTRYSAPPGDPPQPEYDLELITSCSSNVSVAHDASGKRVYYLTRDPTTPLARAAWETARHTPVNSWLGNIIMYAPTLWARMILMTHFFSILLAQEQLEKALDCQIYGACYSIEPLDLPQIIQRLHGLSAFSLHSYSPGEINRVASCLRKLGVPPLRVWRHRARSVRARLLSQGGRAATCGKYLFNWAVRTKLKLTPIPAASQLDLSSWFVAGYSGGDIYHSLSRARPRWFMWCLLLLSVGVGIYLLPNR
Experimental Endpoint: IC50

>>> result("O=C(Nc1ccsc1-c1nc(O)c(O)c(C(=O)O)n1)OCc1c(Cl)cccc1Cl")
"3.78 µM"

* * *

biological target: RNA-directed RNA polymerase (Hepacivirus hominis, UniProt O39930); assay: Displacement of 50 uM PPi from NS5B in Hepatitis C virus
pIC50: −log10 of the molar value.
Experimental Endpoint: pIC50

>>> numeric_value("O=C(Nc1ccsc1-c1nc(O)c(O)c(C(=O)O)n1)OCc1c(Cl)cccc1Cl")
6.76

* * *

target: RNA-directed RNA polymerase (Hepacivirus hominis, UniProt O39930); test: Displacement of 500 uM PPi from NS5B in Hepatitis C virus
pIC50: −log10 of the molar value.
Experimental Endpoint: pIC50

>>> numeric_value("O=C(Nc1ccsc1-c1nc(O)c(O)c(C(=O)O)n1)OCc1c(Cl)cccc1Cl")
6.05

* * *

target: RNA-directed RNA polymerase (Hepacivirus hominis, UniProt O39930); assay: Displacement of 0.1 uM UTP from NS5B in Hepatitis C virus
pIC50: −log10 of the molar value.
Experimental Endpoint: pIC50

>>> numeric_value("O=C(Nc1ccsc1-c1nc(O)c(O)c(C(=O)O)n1)OCc1c(Cl)cccc1Cl")
6.59

* * *

target: RNA-directed RNA polymerase (Hepacivirus hominis); test: Displacement of 100 uM PPi from NS5B in Hepatitis C virus
pIC50: −log10 of the molar value.
Experimental Endpoint: pIC50

>>> numeric_value("O=C(Nc1ccsc1-c1nc(O)c(O)c(C(=O)O)n1)OCc1c(Cl)cccc1Cl")
6.52

Values from ChEMBL document CHEMBL1255387
